- System: human α-synuclein (Homo sapiens)
- Construct: the full-length gene for untagged human α-synuclein was inserted; made in house; host or cells: E. coli BL21(DE3), plasmid derived from pT7 or pET11a
- Experimental protocol: Cell-free Thioflavin T assay of α-synuclein aggregation (αSyn ThT Assay)
- Assay type: biochemical
- Assay context: αSyn 50 μM; compounds at 100 μM; class symbol; read-out: αSyn ThT Assay % Inhibition (activity range)
Measured property: inhibition at 100 µM

Worked cases, inhibition at 100 µM given:
Compound: CN1CC(C(=O)O)n2c(c(-c3cccc(C(F)(F)F)c3)c(Cc3cccc4ccccc34)c(N)c2=O)S1(=O)=O (stereo not shown) [Compound 074]
Measured property: inhibition at 100 µM
Result: 31 to 60%

Compound: CCc1c(Cc2cccc3ccccc23)c(-c2cccc(C(F)(F)F)c2)c2n(c1=O)C(C(=O)O)CN(C1CCCCC1)S2(=O)=O (stereo not shown) [Compound 116]
Measured property: inhibition at 100 µM
Result: 31 to 60%

Compound: O=C(O)C1CSc2c(-c3cccc(C(F)(F)F)c3)c(C(F)(F)c3cccc4ccccc34)cc(=O)n21 (stereo not shown) [Compound 073]
Measured property: inhibition at 100 µM
Result: > 60%

Compound: O=C(O)C1CSc2c(-c3cccc(C(F)(F)F)c3)c(Cc3cccc4ccccc34)cc(=O)n21 (racemic) [Compound 011]
Measured property: inhibition at 100 µM
Result: 31 to 60%

Compound: O=C(O)C1CNS(=O)(=O)c2c(-c3cccc(C(F)(F)F)c3)c(Cc3cccc4ccccc34)cc(=O)n21 (racemic) [Compound 009]
Measured property: inhibition at 100 µM
Result: 11 to 30%

Identify inhibition at 100 µM associated with the compound O=C(O)c1c(CCc2ccccc2)sc2c(-c3cccc(C(F)(F)F)c3)c(Cc3cccc4ccccc34)cc(=O)n12 [Compound 062]
> 60%

Identify inhibition at 100 µM associated with the compound CNC(=O)CCCCN1CC(C(=O)O)n2c(c(-c3cccc(C(F)(F)F)c3)c(Cc3cccc4ccccc34)cc2=O)S1(=O)=O (stereo not shown) [Compound 038]
31 to 60%
